# System: Trypanosoma cruzi
# ASSAY INFO: Trypanosoma cruzi phosphomannomutase and mannose-1-phosphate guanylyltransferase assay
# Assay type: functional
# Set-up: scale not given: direction of the effect not stated beside the values
# REPORTED CONDITIONS: 10 µM
TEST READOUT: Percent Effect (%)
Respond numerically; units are % and should not be typed.

[
  {
    "COMPOUND": "CCS(=O)(=O)N1CCc2c(cccc2NC(=O)NCCOC)C1",
    "MEASUREMENT UNITS": "%",
    "Percent Effect": -0.0974
  },
  {
    "COMPOUND": "Cc1cc(-c2ccc(C(=O)O)cc2)nc(C2CCCN(C(C)C)C2)n1 (stereo not drawn)",
    "MEASUREMENT UNITS": "%",
    "Percent Effect": 1.77
  },
  {
    "COMPOUND": "Cc1cc(NC(=O)CN2CCOC(Cn3cccn3)C2)n(C)n1 (stereo not drawn)",
    "MEASUREMENT UNITS": "%",
    "Percent Effect": 1.27
  },
  {
    "COMPOUND": "Cc1nn2cccnc2c1C(=O)N1CCCC(n2ccnc2)C1 (stereo not drawn)",
    "MEASUREMENT UNITS": "%",
    "Percent Effect": -2.21
  },
  {
    "COMPOUND": "O=C(NCCN1CCc2ccccc2C1)c1scnc1Cl",
    "MEASUREMENT UNITS": "%",
    "Percent Effect": 6.26
  },
  {
    "COMPOUND": "Cn1ccc(C(=O)NCc2cccc(CN3CCCC3)c2)cc1=O",
    "MEASUREMENT UNITS": "%",
    "Percent Effect": 2.05
  },
  {
    "COMPOUND": "CN(Cc1ccco1)C(=O)CN1CCCCC1Cn1cccn1 (stereo not drawn)",
    "MEASUREMENT UNITS": "%",
    "Percent Effect": -1.27
  }
]

Which value of Percent Effect has been reported for Cc1ccc2cc(C3(O)CCN(C(=O)CN4CCCC4)CC3)ccc2n1 in the records?
-4.96

Sourced from ChEMBL document CHEMBL3988442
